# tgt: UniProt:P43116
# test_description: EP2 cAMP EC50 (Table 1)
# Assay type: cell-based
endpoint_label: EC50 (nM)
Your answer is read as nM, so omit the unit and give the number.

Q: Supply reported EC50 belonging to this compound: CC(C)OC(=O)COc1cccc(CN(Cc2ccc(-n3cccn3)cc2)S(=O)(=O)c2ccccn2)c1
Ans: 12

Q: Supply reported EC50 belonging to this compound: CC(C)OC(=O)CCc1cccc(CN(Cc2ccc(-c3ncccn3)cc2)S(=O)(=O)c2cccnc2)c1
Ans: 3.1

Q: Supply reported EC50 belonging to this compound: CC(C)OC(=O)Cc1cccc(CN(Cc2ccc(-c3nccs3)cc2)S(=O)(=O)c2cccnc2)c1
Ans: 2.2

Q: Supply reported EC50 belonging to this compound: CC(C)OC(=O)c1ccc(CCCN(CCOc2cc(Cl)cc(Cl)c2)S(C)(=O)=O)s1
Ans: 4.8

Q: Supply reported EC50 belonging to this compound: CC(C)OC(=O)CCc1cccc(CN(Cc2ccc(-c3cccnc3)cc2)S(=O)(=O)c2ccccc2)c1
Ans: 5.35

Q: Supply reported EC50 belonging to this compound: CC(C)(C)OC(=O)COc1cccc(CN(Cc2ccc(-n3cccn3)cc2)S(=O)(=O)c2cccnc2)c1 [Example C12, reference compound]
Ans: 1.48

----------
Measurement record for prostaglandin E2 type 2 (EP2) receptors (Homo sapiens, UniProt P43116); quantity recorded: IC50.

Q: Supply reported IC50 belonging to this compound: CC(C)OC(=O)c1csc(CCCN(CCOc2cc(Cl)cc(Cl)c2)S(C)(=O)=O)n1
Ans: 5.3 nM

Q: Supply reported IC50 belonging to this compound: CC(C)OC(=O)COc1cccc(CN(Cc2ccc(-c3ccccn3)cc2)S(=O)(=O)c2cccnc2)c1
Ans: 7.6 nM

Q: Supply reported IC50 belonging to this compound: CC(C)OC(=O)CCc1cccc(CN(Cc2ccc(-c3ncccn3)cc2)S(=O)(=O)c2cccnc2)c1
Ans: < 10 nM

Q: Supply reported IC50 belonging to this compound: CC(C)OC(=O)COc1cccc(CN(Cc2ccc(-n3cccn3)cc2)S(=O)(=O)c2ccccn2)c1
Ans: < 10 nM

Q: Supply reported IC50 belonging to this compound: CC(C)OC(=O)CCc1cccc(CN(Cc2ccc(-c3ncccn3)cc2)S(=O)(=O)c2ccccn2)c1
Ans: < 10 nM

Q: Supply reported IC50 belonging to this compound: CC(C)(C)OC(=O)CCc1cccc(CN(Cc2ccc(-c3cccnc3)cc2)S(=O)(=O)c2ccccc2)c1
Ans: < 12.4 nM

Q: Supply reported IC50 belonging to this compound: CC(C)OC(=O)CCc1cccc(CN(Cc2ccc(-c3cccnc3)cc2)S(=O)(=O)c2ccccc2)c1
Ans: < 12.4 nM
